Provide the reported inhibition of each item.
measurementTarget: cGMP-dependent protein kinase 2 (Homo sapiens);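 also: reported figure is a mean inhibition value against PRKG2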
conditionContext: at 0.1 µM
State just the number; it will be interpreted in %.

-- ask inhibition for `Fc1ccc(-c2nn3ncccc3c2-c2ccnc(Nc3ccc4c(c3)OCCO4)n2)cc1` ?
-- reply 2.03

-- ask Same question for `COc1ccc2[nH]c3c4[nH]c5ccc(OC)cc5c4c4c(c3c2c1)C(=O)NC4=O` please.
-- reply 69.5

-- ask How about this compound: `CCn1c(-c2nonc2N)nc2ccccc21`
-- reply 26.9

-- ask Input `COc1ccc(-c2nn3ncccc3c2-c2ccnc(Nc3ccc4c(c3)OCCO4)n2)cc1`
-- reply 0.2

-- ask Please give the result for `CCCN1CCC(c2ccc(Nc3nc(Nc4cc(F)ccc4C(N)=O)c4cc[nH]c4n3)c(OC)c2)CC1` too.
-- reply 8.54

-- ask # repeat for `COC(=O)Nc1nc2ccc(Oc3ccc(NC(=O)Nc4cccc(Cl)c4)cc3)cc2[nH]1`
-- reply 0.27

-- ask Likewise for `CCCN(CCS(C)(=O)=O)Cc1ccc(-c2ccc3ncnc(Nc4ccc(OCc5cccc(F)c5)c(Cl)c4)c3c2)o1` ?
-- reply 0.95

-- ask And then `CCN(CC)S(=O)(=O)c1ccc(OC)c(Nc2ncc(-c3ccccc3)o2)c1` , what is it?
-- reply 0.25

-- ask Again, but for `CCNC(=O)O[C@H]1CN[C@H](C#Cc2cc3ncnc(Nc4ccc(OCc5cccc(F)c5)c(Cl)c4)c3s2)C1`
-- reply -0.03

-- ask What about this compound? `COc1cccc(-c2c[nH]c3c(N/N=C/c4ccncc4)ncnc23)c1`
-- reply 1.71

-- ask And `CCOc1ccc2c(-c3ccnc(Nc4cccc(C(F)(F)F)c4)n3)cnn2n1` ?
-- reply 0.91

-- ask Then what about the compound `Nc1nc(-c2cccc(Cl)c2)c(-c2ccc3ncccc3n2)s1` ?
-- reply 1.78

-- ask # repeat for `O=C(O[C@H]1CN[C@H](C#Cc2cc3ncnc(Nc4ccc(Cc5ccccc5)cc4)c3s2)C1)N1CCOCC1`
-- reply 4.54

-- ask Could you do the same for `CNC(=O)c1cc(-c2ccc(F)cc2)cc(-c2ccc(S(=O)(=O)N3CCCC3)cc2)c1N` , please?
-- reply 1.41

-- ask Please do the same for `CN1CCC(n2cnc(-c3ccc(F)cc3)c2-c2ccnc(N)n2)CC1` as well.
-- reply 2.99

-- ask Next compound: `CN1CCC(n2cnc(-c3ccc(F)cc3)c2-c2ccnc(Nc3ccccc3)n2)CC1`
-- reply 0.99

-- ask Thanks! And `CNC(=O)c1cccc(C#Cc2cncnc2Nc2ccc(OCc3cccc(F)c3)c(Cl)c2)c1` ?
-- reply 0.38

-- ask What do you have for `O=S(=O)(CCNCc1ccc(-c2ccc3ncnc(Nc4ccc(OCc5cccc(F)c5)c(Cl)c4)c3c2)o1)c1ccccc1` ?
-- reply 3.34

-- ask Note, next up: `COC(=O)c1sc(-n2cnc3cc(OC)c(OC)cc32)cc1OCc1ccccc1C(F)(F)F`
-- reply 1.58

* * *

measurementTarget: Protein kinase C iota type (Homo sapiens) (UniProt P41743);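 also: reported figures are mean inhibition values from the GSK PKIS screen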
Sequence (whole entry): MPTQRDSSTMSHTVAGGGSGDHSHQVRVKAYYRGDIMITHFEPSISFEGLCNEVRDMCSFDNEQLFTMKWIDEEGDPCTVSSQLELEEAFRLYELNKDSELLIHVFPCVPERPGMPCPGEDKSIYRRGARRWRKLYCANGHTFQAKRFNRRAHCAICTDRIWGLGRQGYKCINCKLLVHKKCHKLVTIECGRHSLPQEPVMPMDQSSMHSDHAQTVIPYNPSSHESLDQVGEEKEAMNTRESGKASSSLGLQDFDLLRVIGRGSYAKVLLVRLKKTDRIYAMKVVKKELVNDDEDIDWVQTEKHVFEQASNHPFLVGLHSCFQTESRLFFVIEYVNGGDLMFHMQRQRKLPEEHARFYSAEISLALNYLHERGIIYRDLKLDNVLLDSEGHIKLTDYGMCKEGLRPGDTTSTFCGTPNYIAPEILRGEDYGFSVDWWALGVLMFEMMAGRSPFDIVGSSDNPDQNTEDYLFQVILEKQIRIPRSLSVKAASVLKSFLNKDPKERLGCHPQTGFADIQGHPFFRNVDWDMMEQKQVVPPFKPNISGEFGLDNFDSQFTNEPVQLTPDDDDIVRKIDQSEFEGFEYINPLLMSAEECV
conditionContext: at 1 µM
Please provide measured inhibition for the entries that follow.

-- ask Would you mind telling me what inhibition value was observed for `COc1cccc(-n2ncc3c(N/N=C/c4ccc(F)cc4)ncnc32)c1` ?
-- reply 1.45%

-- ask Moving on to `Cc1cccc(Nc2ncc(-c3ccccc3)o2)c1`
-- reply 2.2%

-- ask Now the same for `COc1ccc2c(-c3ccnc(Nc4cccc(OC(F)(F)F)c4)n3)cnn2n1`
-- reply 1.45%

-- ask // same read-out, input: `NS(=O)(=O)c1ccc(Nc2ncc(-c3ccccc3)o2)cc1`
-- reply 1.3%

-- ask Next up: `COc1ccc2[nH]c3c4[nH]c5ccc(OC)cc5c4c4c(c3c2c1)C(=O)NC4=O`
-- reply 0.15%

-- ask Same lookup for `CCCN(CCS(C)(=O)=O)Cc1ccc(-c2ccc3ncnc(Nc4ccc(OCc5cccc(F)c5)c(Cl)c4)c3c2)o1` , please.
-- reply -0.59%

-- ask Next entry: `Fc1ccc(-c2nn3ccccc3c2-c2ccncc2)cc1`
-- reply 3.99%

-- ask Try the compound `Cc1cccc2c1NC(=O)/C2=N\Nc1ccc(S(N)(=O)=O)cc1`
-- reply 2.53%

-- ask Could you do the same for `CCOc1ccc2c(-c3ccnc(Nc4cccc(C(F)(F)F)c4)n3)cnn2n1` , please?
-- reply 0.72%

-- ask # repeat for `COc1cc2c(cc1Nc1nc(Nc3ccsc3C(N)=O)c3cc[nH]c3n1)N(C(=O)CN(C)C)CCC2(C)C`
-- reply 5.01%

* * *

measurementTarget: Serine/threonine-protein kinase Sgk3 (Homo sapiens);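 also: each value is a mean of replicate inhibition readings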
conditionContext: at 1 µM
quantity: inhibition (%)
Express it in %; write the number only.

-- ask Data request, read-out inhibition, for `c1ccc(COc2ccc(Nc3ncnc4ccc(-c5ccco5)cc34)cc2)cc1`
-- reply 0.58

-- ask Then what about the molecule `CN1CCC(n2cnc(-c3ccc(F)cc3)c2-c2ccnc(Nc3ccccc3)n2)CC1` ?
-- reply 3.19

-- ask // query: `CC(=O)Nc1cccc(C#Cc2cncnc2Nc2ccc(OCc3cccc(F)c3)c(Cl)c2)c1`
-- reply -0.92

-- ask Now give it for `COc1ccc2[nH]c3c4[nH]c5ccc(OC)cc5c4c4c(c3c2c1)C(=O)NC4=O` too.
-- reply 40.2

-- ask Continue with `CCNC(=O)O[C@H]1CN[C@H](C#Cc2cc3ncnc(Nc4ccc(OCc5cccc(F)c5)c(Cl)c4)c3s2)C1`
-- reply -0.29

-- ask Try `FC(F)(F)c1cccc(-c2nn3ncccc3c2-c2ccnc(Nc3ccc4c(c3)OCCO4)n2)c1` next.
-- reply 1.47

-- ask Would you mind doing `Cc1cccc2c1NC(=O)/C2=N\Nc1ccc(S(N)(=O)=O)cc1` as well?
-- reply -0.24

-- ask What would you report for `CCn1c(-c2nonc2N)nc2c(C#CC(C)(C)O)ncc(OC3CCNCC3)c21` ?
-- reply 53.4

-- ask # iterate: `CCN1CCC(CC(=O)Nc2n[nH]c3nnc(-c4cccc(F)c4F)cc23)CC1`
-- reply 4.18

-- ask // query: `COC(=O)c1sc(-n2cnc3cc(OC)c(OC)cc32)cc1OCc1ccccc1C(F)(F)F`
-- reply 1.46

-- ask For `CCn1cc(-c2ccnc3[nH]ccc23)c(-c2cccc(NC(=O)Nc3ccc(OCc4ccccc4)cc3)c2)n1` then?
-- reply -0.15

-- ask Consider next the molecule `Fc1ccc(-c2nn3ncccc3c2-c2ccnc(Nc3ccc4c(c3)OCCO4)n2)cc1` in the same way.
-- reply 0.8

-- ask Also, `Nc1nc(-c2cccc(Cl)c2)c(-c2ccc3ncccc3n2)s1` please.
-- reply 6.98

-- ask Param item: `Cc1cccc(Nc2ncc(-c3ccccc3)o2)c1`
-- reply 1.3

-- ask Also `COc1cc(Nc2nccc(Nc3ccc4c(C)n[nH]c4c3)n2)cc(OC)c1OC` ?
-- reply 1.07

-- ask # repeat for `CCCN1CCC(c2ccc(Nc3nc(Nc4cc(F)ccc4C(N)=O)c4cc[nH]c4n3)c(OC)c2)CC1`
-- reply 4.03

-- ask Same again, this time with `CCn1c(-c2nonc2N)nc2ccccc21`
-- reply 23.6

-- ask And what about the molecule `NS(=O)(=O)c1ccc(Nc2ncc(-c3ccccc3)o2)cc1` ?
-- reply 2.86

-- ask Also `CNC(=O)c1cccc(C#Cc2cncnc2Nc2ccc(OCc3cccc(F)c3)c(Cl)c2)c1` ?
-- reply 1.41

-- ask Same read-out for `Fc1ccc(-c2nn3ccccc3c2-c2ccncc2)cc1` ?
-- reply 5.79

-- ask Similarly, `Fc1cccc(COc2ccc(Nc3ncnc4sc(-c5ccco5)cc34)cc2Cl)c1` ?
-- reply 4.61

-- ask Please answer likewise for `COc1cc2c(cc1Nc1nc(Nc3ccsc3C(N)=O)c3cc[nH]c3n1)N(C(=O)CN(C)C)CCC2(C)C`
-- reply 4.25

Value source: ChEMBL document CHEMBL1961873
